- measurementDescription: DRUGMATRIX: Purinergic P2X radioligand binding (ligand: [3H] alpha, beta-Methylene-ATP)
- Type: cell membranes, Oryctolagus cuniculus, New Zealand albino, Urinary bladder, Membrane
- measurementContext: Not Active = under 50% inhibition at 10 µM
parameter: IC50

Please review the entries below; each comes with its answer.
CC(C)(c1ccc(O)cc1)c1ccc(O)cc1 | Not Active
NC(=O)NC(=O)Cc1ccccc1 [PHENACEMIDE] | Not Active
COc1ccccc1OCCNCC(O)COc1cccc2[nH]c3ccccc3c12 (stereo not given) | Not Active
Nc1nc(N)c2nc(CNc3ccc(C(=O)N[C@@H](CCC(=O)O)C(=O)O)cc3)cnc2n1 | Not Active
O=C(Nc1ccc(Cl)c(Cl)c1)c1cc(Cl)cc(Cl)c1O [3,3',4',5-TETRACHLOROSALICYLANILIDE] | Not Active

Tell me the measured IC50 of CCN(CC)CCNC(=O)c1cc(Cl)c(N)cc1OC [METOCLOPRAMIDE] , please.
Not Active

// returns reported IC50 for input CC(=O)O[C@]1(C(C)=O)CC[C@H]2[C@@H]3C[C@H](C)C4=CC(=O)CC[C@]4(C)[C@H]3CC[C@@]21C [MEDROXYPROGESTERONE ACETATE]
Not Active

Given the entry COc1ccc(Cl)cc1C(=O)NCCc1ccc(S(=O)(=O)NC(=O)NC2CCCCC2)cc1 [GLYBURIDE] , report its measured IC50.
Not Active

Name the recorded IC50 for O=C(NCCN1CCOCC1)c1ccc(Cl)cc1 [MOCLOBEMIDE] .
Not Active

Bench note: what IC50 did Cc1c(N)nc([C@H](CC(N)=O)NC[C@H](N)C(N)=O)nc1C(=O)N[C@H](C(=O)N[C@H](C)[C@@H](O)[C@H](C)C(=O)N[C@H](C(=O)NCCc1nc(-c2nc(C(=O)NCCC[S+](C)C)cs2)cs1)[C@@H](C)O)[C@@H](O[C@@H]1O[C@@H](CO)[C@@H](O)[C@H](O)[C@@H]1O[C@H]1O[C@H](CO)[C@@H](O)[C@H](OC(N)=O)[C@@H]1O)c1c[nH]cn1.[Br-] show?
Not Active

Give the measured IC50 of CO[C@H]1O[C@@H]2O[C@@]3(C)CC[C@H]4[C@H](C)CC[C@@H]([C@H]1C)[C@@]24OO3 .
Not Active

# IC50 lookup, item CCOc1cc(N)c(Cl)cc1C(=O)NCC1CN(Cc2ccc(F)cc2)CCO1 (stereo not given) [MOSAPRIDE]
Not Active

Item C=C(Cl)Cl has what recorded IC50?
Not Active

I am curious: what IC50 value has been reported for C[C@]12CCC(=O)C[C@@H]1CC[C@@H]1[C@@H]2CC[C@]2(C)[C@@H](O)CC[C@@H]12 ?
Not Active

Sample O=C(c1ccccc1)c1ccc2n1CCC2C(=O)O (stereo not given) — what was its IC50?
Not Active

###

- assayTarget: Alpha-1A adrenergic receptor (Rattus norvegicus)
- Sequence (P43140 whole entry): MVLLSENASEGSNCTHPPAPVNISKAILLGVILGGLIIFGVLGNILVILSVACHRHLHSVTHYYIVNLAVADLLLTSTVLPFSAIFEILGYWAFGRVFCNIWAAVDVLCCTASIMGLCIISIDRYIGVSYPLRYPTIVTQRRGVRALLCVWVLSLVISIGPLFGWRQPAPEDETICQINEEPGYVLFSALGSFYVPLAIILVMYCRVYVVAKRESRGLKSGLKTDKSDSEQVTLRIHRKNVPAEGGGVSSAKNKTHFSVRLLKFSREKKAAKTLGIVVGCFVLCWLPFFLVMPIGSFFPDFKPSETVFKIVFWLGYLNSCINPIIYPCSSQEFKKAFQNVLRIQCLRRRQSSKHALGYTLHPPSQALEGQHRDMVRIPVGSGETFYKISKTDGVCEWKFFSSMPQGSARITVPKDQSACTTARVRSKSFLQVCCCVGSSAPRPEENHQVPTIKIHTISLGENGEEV
- measurementDescription: DRUGMATRIX: Alpha-1A adrenergic receptor radioligand binding (ligand: prazosin)
- Format: cell membranes, Wistar, Submaxillary gland, Membrane
- measurementContext: Not Active = under 50% inhibition at 10 µM; read-out: Ki
parameter: Ki

CN1C[C@H](CNC(=O)OCc2ccccc2)C[C@@H]2c3cccc4c3c(cn4C)C[C@H]21 [METERGOLINE] | 38 nM
CNCCCC12CCC(c3ccccc31)c1ccccc12 [MAPROTILINE] | 230 nM

Kindly review the next compound as well.
Look up Ki for this compound: CN(C)CCC=C1c2ccccc2COc2ccccc21 [DOXEPIN]
43 nM

###

- assayTarget: D(4) dopamine receptor (Homo sapiens, UniProt P21917)
- Sequence (P21917 whole entry): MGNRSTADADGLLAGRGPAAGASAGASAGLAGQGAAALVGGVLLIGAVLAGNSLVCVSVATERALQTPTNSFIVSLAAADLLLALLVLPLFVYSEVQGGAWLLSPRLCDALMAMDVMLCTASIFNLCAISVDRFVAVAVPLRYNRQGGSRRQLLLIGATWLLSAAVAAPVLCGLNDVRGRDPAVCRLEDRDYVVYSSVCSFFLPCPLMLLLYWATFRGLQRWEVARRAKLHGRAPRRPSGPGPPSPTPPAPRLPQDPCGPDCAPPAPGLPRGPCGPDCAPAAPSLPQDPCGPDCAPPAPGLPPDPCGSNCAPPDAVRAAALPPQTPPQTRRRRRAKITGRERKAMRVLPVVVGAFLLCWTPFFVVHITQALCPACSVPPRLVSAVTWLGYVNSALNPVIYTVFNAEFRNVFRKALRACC
- measurementDescription: DRUGMATRIX: Dopamine D4.2 radioligand binding (ligand: [3H] Spiperone)
- Assay type: cell membranes, CHO-K1, Membrane
- measurementContext: cho-k1; Not Active = under 50% inhibition at 10 µM
parameter: IC50

# annotated cases, reported IC50 shown
CC(C)Cc1ccc([C@H](C)C(=O)O)cc1 [DEXIBUPROFEN] | Not Active
Cc1ccc(S(=O)(=O)NC(=O)NN2CCCCCC2)cc1 [TOLAZAMIDE] | Not Active
COc1cc(NC(C)CCCN)c2ncccc2c1 (centres undefined) [PRIMAQUINE] | Not Active
CCO [ALCOHOL] | Not Active

Reported IC50 for CN(CCOc1ccc(C[C@H](Nc2ccccc2C(=O)c2ccccc2)C(=O)O)cc1)c1ccccn1 : what is it?
Not Active

Dear colleague, I am looking for the recorded IC50 of the following compound: C[C@]12CC[C@@H](O)C[C@@H]1CC[C@@H]1[C@@H]2CC[C@]2(C)C(=O)CC[C@@H]12 [ANDROSTERONE]
Not Active

IC50 for O=C(OC[C@H]1O[C@@H](OC(=O)c2cc(O)c(O)c(OC(=O)c3cc(O)c(O)c(O)c3)c2)[C@H](OC(=O)c2cc(O)c(O)c(OC(=O)c3cc(O)c(O)c(O)c3)c2)[C@@H](OC(=O)c2cc(O)c(O)c(OC(=O)c3cc(O)c(O)c(O)c3)c2)[C@@H]1OC(=O)c1cc(O)c(O)c(OC(=O)c2cc(O)c(O)c(O)c2)c1)c1cc(O)c(O)c(OC(=O)c2cc(O)c(O)c(O)c2)c1 [TANNIC ACID] ?
Not Active

Given the entry Cc1nnc(NS(=O)(=O)c2ccc(N)cc2)s1 [SULFAMETHIZOLE] , report its measured IC50.
Not Active

Suppose we examine the compound O=C(O)c1ccccc1 [BENZOIC ACID] ; what IC50 value has been reported?
Not Active

Which IC50 is listed for Cc1cc2c(s1)Nc1ccccc1N=C2N1CCN(C)CC1 [OLANZAPINE] ?
Not Active

What measured IC50 goes with C[C@H](C(=O)O)c1ccc2oc(-c3ccc(F)cc3)nc2c1 [FLUNOXAPROFEN] ?
Not Active

Item Clc1cc(Cl)c(OCC#CI)cc1Cl [HALOPROGIN] has what recorded IC50?
Not Active

IC50 for CC(N)C12CC3CC(CC(C3)C1)C2 (centres undefined) [RIMANTADINE] ?
Not Active

Fill in: IC50 of COC(=O)Nc1nc2ccc(Sc3ccccc3)cc2[nH]1 [FENBENDAZOLE] is ___
Not Active

Need IC50 of O=C1CN(/N=C/c2ccc([N+](=O)[O-])o2)C(=O)N1 [NITROFURANTOIN] , thanks.
Not Active

For the compound Cc1cccc(C)c1NC(=O)C(C)N (centres undefined) [TOCAINIDE] , what IC50 is on record?
Not Active

###

Below, each of the molecules is paired with its reported pIC50 value.
- assayTarget: Cytochrome P450 2C9 (Homo sapiens, UniProt P11712); also: in other assays of this panel Not Active means under 50% inhibition at 10 µM
- Sequence (P11712 whole entry): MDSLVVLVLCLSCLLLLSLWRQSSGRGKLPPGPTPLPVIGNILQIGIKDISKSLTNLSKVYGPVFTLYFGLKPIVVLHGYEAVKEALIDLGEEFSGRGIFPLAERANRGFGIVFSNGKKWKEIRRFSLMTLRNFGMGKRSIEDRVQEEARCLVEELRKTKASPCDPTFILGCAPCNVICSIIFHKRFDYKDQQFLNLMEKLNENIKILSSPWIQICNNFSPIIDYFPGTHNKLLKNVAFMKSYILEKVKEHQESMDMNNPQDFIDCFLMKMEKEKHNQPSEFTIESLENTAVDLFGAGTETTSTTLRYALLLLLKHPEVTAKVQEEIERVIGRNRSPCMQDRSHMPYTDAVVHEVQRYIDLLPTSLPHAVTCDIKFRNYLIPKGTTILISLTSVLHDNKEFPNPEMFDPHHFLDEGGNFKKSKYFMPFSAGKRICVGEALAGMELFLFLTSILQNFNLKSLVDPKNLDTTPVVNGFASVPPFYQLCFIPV
The read-out pIC50 is expressed as -log10 of concentration in moles per litre.

Solved entries (count: 4):
O=C(OC[C@H]1O[C@@H](OC(=O)c2cc(O)c(O)c(OC(=O)c3cc(O)c(O)c(O)c3)c2)[C@H](OC(=O)c2cc(O)c(O)c(OC(=O)c3cc(O)c(O)c(O)c3)c2)[C@@H](OC(=O)c2cc(O)c(O)c(OC(=O)c3cc(O)c(O)c(O)c3)c2)[C@@H]1OC(=O)c1cc(O)c(O)c(OC(=O)c2cc(O)c(O)c(O)c2)c1)c1cc(O)c(O)c(OC(=O)c2cc(O)c(O)c(O)c2)c1 | 5.34
COc1cc([C@@H]2c3cc4c(cc3[C@H](O)[C@H]3COC(=O)[C@H]23)OCO4)cc(OC)c1OC | 5.40
CN(CCOc1ccc(C[C@H](Nc2ccccc2C(=O)c2ccccc2)C(=O)O)cc1)c1ccccn1 | 5.40
CCOC(=O)C1=C(C)NC(C)=C(C(=O)OCC)C1c1ccccc1/C=C/C(=O)OC(C)(C)C | 5.70

Consider now this further molecule.
Form entry - test system: Cytochrome P450 2C9 (Homo sapiens, UniProt P11712); read-out: pIC50; molecule: CCOc1cc(N)c(Cl)cc1C(=O)NCC1CN(Cc2ccc(F)cc2)CCO1 (stereo not given) [MOSAPRIDE]; also: in other assays of this panel Not Active means under 50% inhibition at 10 µM
6.00

Origin of values: ChEMBL document CHEMBL1909046
